# maps each entry to its pKi
biological target: ROCK (Homo sapiens); test: ROCK inhibition assay, standard radioactive enzyme assay ("33P"); type: biochemical
Sequence (Q13464 whole entry): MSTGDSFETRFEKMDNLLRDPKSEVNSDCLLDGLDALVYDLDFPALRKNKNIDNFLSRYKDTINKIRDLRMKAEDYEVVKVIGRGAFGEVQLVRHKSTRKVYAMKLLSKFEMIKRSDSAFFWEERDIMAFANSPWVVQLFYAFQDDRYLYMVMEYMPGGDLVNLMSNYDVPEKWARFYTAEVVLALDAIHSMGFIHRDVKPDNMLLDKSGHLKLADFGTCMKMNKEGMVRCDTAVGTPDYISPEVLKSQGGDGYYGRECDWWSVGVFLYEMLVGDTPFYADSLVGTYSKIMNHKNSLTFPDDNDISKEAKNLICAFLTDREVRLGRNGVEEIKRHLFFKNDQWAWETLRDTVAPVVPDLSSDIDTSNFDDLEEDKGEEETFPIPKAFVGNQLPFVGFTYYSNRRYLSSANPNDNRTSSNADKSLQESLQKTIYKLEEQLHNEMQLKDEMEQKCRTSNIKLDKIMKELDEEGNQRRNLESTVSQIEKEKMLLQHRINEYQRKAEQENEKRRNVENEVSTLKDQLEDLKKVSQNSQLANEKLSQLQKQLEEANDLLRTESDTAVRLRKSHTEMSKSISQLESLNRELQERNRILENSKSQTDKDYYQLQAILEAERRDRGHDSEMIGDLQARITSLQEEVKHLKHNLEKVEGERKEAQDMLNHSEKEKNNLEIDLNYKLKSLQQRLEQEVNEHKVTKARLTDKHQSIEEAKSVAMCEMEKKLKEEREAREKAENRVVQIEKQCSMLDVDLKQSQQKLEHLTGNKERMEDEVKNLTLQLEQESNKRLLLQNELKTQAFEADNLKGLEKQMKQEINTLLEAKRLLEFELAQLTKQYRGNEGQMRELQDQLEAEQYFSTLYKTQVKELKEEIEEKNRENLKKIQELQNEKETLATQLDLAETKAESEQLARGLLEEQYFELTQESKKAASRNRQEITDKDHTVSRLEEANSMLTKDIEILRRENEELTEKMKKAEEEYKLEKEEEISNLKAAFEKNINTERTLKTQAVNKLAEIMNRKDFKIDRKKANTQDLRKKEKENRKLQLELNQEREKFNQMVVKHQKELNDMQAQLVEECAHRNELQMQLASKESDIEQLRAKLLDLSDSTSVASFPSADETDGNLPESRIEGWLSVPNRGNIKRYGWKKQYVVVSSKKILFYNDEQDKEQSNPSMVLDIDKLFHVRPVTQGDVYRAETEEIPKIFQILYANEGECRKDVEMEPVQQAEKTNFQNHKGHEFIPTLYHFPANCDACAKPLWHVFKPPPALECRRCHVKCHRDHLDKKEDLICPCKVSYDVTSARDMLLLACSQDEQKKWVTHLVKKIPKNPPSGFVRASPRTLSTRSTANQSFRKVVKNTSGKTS
pKi: −log10 of the molar value.

Solved cases below.
[[record]]
compound = "C[C@@H]1CCN(Cc2ccccc2)CC1N(C)c1cc(-c2c[nH]c3ncccc23)ncn1 (stereo partly shown)"
assayed_system = "ROCK (Homo sapiens)"
result = "5.30 to 6.30"

[[record]]
compound = "CC(=O)N1CCCN(c2nccc(-c3c[nH]c4ncc(-c5cccnc5)cc34)n2)CC1"
assayed_system = "ROCK (Homo sapiens)"
result = "> 6.30"

[[record]]
compound = "CC(=O)N1CCCN(c2nccc(-c3c[nH]c4ncc(Cl)cc34)n2)CC1"
assayed_system = "ROCK (Homo sapiens)"
result = "5.30 to 6.30"


Next compound, pKi to be filled in.
Ask: Which pKi reading was recorded for the compound `COc1cnc2[nH]cc(-c3cc(N[C@H](C)c4ccccc4)ncn3)c2c1` ?
Reply: 5.30 to 6.30
